BT-474 proliferation % inhibition at 10 µg/ml IgG values, listed per item
target: Human HER3, endogenous, on human cancer cell lines (human, UniProt P21860 20-1342); test: cell-based or functional assay
Write it as a number; the unit % goes unstated.

Example binders with recorded BT-474 proliferation % inhibition at 10 µg/ml IgG:
BINDER	RESULT
MOR09823 (antibody, human IgG1, kappa, V domains shown, tested as IgG) VH: QVQLVESGGGLVQPGGSLRLSCAASGFTFSSYAMSWVRQAPGKGLEWVSVTGAVGRTYYPDSVKGRFTISRDNSKNTLYLQMNSLRAEDTAVYYCARWGDEGFDIWGQGTLVTVSS VL: DIQMTQSPSSLSASVGDRVTITCRASQGISNWLAWYQQKPGKAPKLLIYGASSLQSGVPSRFSGSGSGTDFTLTISSLQPEDFAVYYCQQYSSFPTTFGQGTKVEIKR	39.8
MOR10703 (antibody, human IgG1, kappa, V domains shown, tested as IgG) VH: EVQLLESGGGLVQPGGSLRLSCAASGFTFSSYAMSWVRQAPGKGLEWVSAINSQGKSTYYADSVKGRFTISRDNSKNTLYLQMNSLRAEDTAVYYCARWGDEGFDIWGQGTLVTVSS VL: DIQMTQSPSSLSASVGDRVTITCRASQGISNWLAWYQQKPGKAPKLLIYGASSLQSGVPSRFSGSGSGTDFTLTISSLQPEDFATYYCQQYSSFPTTFGQGTKVEIKR	41.6
MOR09824 (antibody, human IgG1, kappa, V domains shown, tested as IgG) VH: QVQLVESGGGLVQPGGSLRLSCAASGFTFSSYAMSWVRQAPGKGLEWVSVISAWGHVKYYADSVKGRFTISRDNSKNTLYLQMNSLRAEDTAVYYCARWGDEGFDIWGQGTLVTVSS VL: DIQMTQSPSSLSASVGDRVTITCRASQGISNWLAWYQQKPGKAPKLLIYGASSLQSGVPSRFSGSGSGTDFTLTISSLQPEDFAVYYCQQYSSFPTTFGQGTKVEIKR	36.8

What BT-474 proliferation % inhibition at 10 µg/ml IgG value was documented for this binder, MOR10702 (antibody, human IgG1, kappa, V domains shown, tested as IgG) VH: EVQLLESGGGLVQPGGSLRLSCAASGFTFSSYAMSWVRQAPGKGLEWVSVISAWGHVKYYADSVKGRFTISRDNSKNTLYLQMNSLRAEDTAVYYCARWGDEGFDIWGQGTLVTVSS VL: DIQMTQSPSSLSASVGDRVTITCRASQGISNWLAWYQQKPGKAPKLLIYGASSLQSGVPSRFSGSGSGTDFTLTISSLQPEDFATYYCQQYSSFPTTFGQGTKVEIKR ?
43.8
